test system: NCI-H1688; test: inhibition of cell viability relative to untreated control (fraction); higher = stronger growth inhibition, active = 0.5 or more; conditions: 30 µM; 24 h
Structures can show the parent of a compound that is named as a salt.
Measured inhibition of cell viability, listed per entry for reference.

COMPOUND	inhibition of cell viability
CC1(C)CC[C@]2(C(=O)O)CC[C@]3(C)C(=CC[C@@H]4[C@@]5(C)CCC(=O)C(C)(C)[C@@H]5CC[C@]43C)[C@@H]2C1	0.342 (inactive)
Cc1cc2nc3c(=O)[nH]c(=O)nc-3n(C[C@H](O)[C@H](O)[C@H](O)COP(=O)(O)O)c2cc1C [Flavin mononucleotide]	0.0137 (inactive)
COc1ccc2c(c1OC)C(=O)O[C@@H]2[C@H]1c2c(cc3c(c2OC)OCO3)CCN1C [Noscapine hydrochloride]	0.323 (inactive)
OC[C@H]1OC(O)[C@@H](O)[C@@H](O)[C@@H]1O (some centres undefined)	0.0629 (inactive)
OC[C@H]1O[C@H](O[C@H]2O[C@H](CO)[C@@H](O)[C@H](O)[C@H]2O)[C@H](O)[C@@H](O)[C@@H]1O [D-(+)-Trehalose dihydrate]	0.249 (inactive)
CC(=O)O[C@@]12CO[C@@H]1C[C@H](O)[C@@]1(C)C(=O)[C@H](O)C3=C(C)[C@@H](OC(=O)[C@H](O)[C@@H](NC(=O)OC(C)(C)C)c4ccccc4)C[C@@](O)([C@@H](OC(=O)c4ccccc4)[C@H]21)C3(C)C [Docetaxel trihydrate]	0.635 (active)
CC1(C)O[C@H]2CC(=O)OC[C@]23[C@H]2CC[C@@]4(C)[C@H](c5ccoc5)OC(=O)[C@H]5O[C@]54[C@]2(C)C(=O)C[C@@H]13	-0.0414 (inactive)
COc1ccc2ccc(=O)oc2c1CC=C(C)C	0.166 (inactive)
COC(=O)CC[C@@H](C)[C@H]1CC[C@H]2[C@@H]3[C@H](O)C[C@@H]4C[C@H](O)CC[C@]4(C)[C@H]3C[C@H](O)[C@]12C [Methyl Cholate]	0.013 (inactive)
NCCCS(=O)(=O)O	0.357 (inactive)
C=C[C@H]1CN2CC[C@H]1C[C@H]2[C@H](O)c1ccnc2ccc(OC)cc12	0.162 (inactive)
COc1cc(/C=C/C(=O)CC(=O)/C=C/c2ccc(O)c(OC)c2)ccc1O	0.315 (inactive)
O=c1ccc2ccccc2o1	-0.151 (inactive)
O=C(/C=C/c1ccc(O)c(O)c1)O[C@@H]1C[C@](O)(C(=O)O)C[C@@H](O)[C@H]1O	0.162 (inactive)

* * *

test system: NCI-H1688; assay: inhibition of cell viability relative to untreated control (fraction); higher = stronger growth inhibition, active = 0.5 or more; details: 30 µM; 24 h
Structures can show the parent of a compound that is named as a salt.
Classes are defined on inhibition of cell viability with ranges bucket 1 (below -0.05), bucket 2 (-0.05 to below 0.1), bucket 3 (0.1 or more)

COMPOUND	LABEL
OC[C@H]1O[C@@H](Oc2cc(O)cc(/C=C/c3ccc(O)cc3)c2)[C@H](O)[C@@H](O)[C@@H]1O [Piceid]	bucket 3
CC1=C(C/C=C(\C)CCC[C@H](C)CCC[C@H](C)CCCC(C)C)C(=O)c2ccccc2C1=O [Vitamin K1]	bucket 1
O=c1cc(-c2ccc(O)cc2)oc2cc(O)cc(O)c12 [Apigenin]	bucket 3
C[C@H](CC[C@@H](O[C@@H]1O[C@H](CO[C@@H]2O[C@H](CO)[C@@H](O)[C@H](O)[C@H]2O)[C@@H](O)[C@H](O)[C@H]1O[C@@H]1O[C@H](CO)[C@@H](O)[C@H](O)[C@H]1O)C(C)(C)O)[C@H]1CC[C@@]2(C)[C@@H]3CC=C4[C@@H](CC[C@H](O[C@@H]5O[C@H](CO[C@@H]6O[C@H](CO)[C@@H](O)[C@H](O)[C@H]6O)[C@@H](O)[C@H](O)[C@H]5O)C4(C)C)[C@]3(C)[C@H](O)C[C@]12C [Mogroside V]	bucket 3
C=C1C(=O)O[C@@H]2C[C@@]3(C)CCC[C@H](C)C3=C[C@H]12 [Helenine]	bucket 3
C[C@H](CCC(=O)O)[C@H]1CC[C@H]2[C@@H]3C[C@H](O)[C@@H]4C[C@H](O)CC[C@]4(C)[C@H]3CC[C@]12C [Hyodeoxycholic acid (HDCA)]	bucket 1
C[C@H](CCC(=O)NCCS(=O)(=O)O)[C@H]1CC[C@H]2[C@@H]3[C@H](O)C[C@@H]4C[C@H](O)CC[C@]4(C)[C@H]3C[C@H](O)[C@]12C [Taurocholic acid sodium salt hydrate]	bucket 2
C=C1CC[C@H]2O[C@]2(C)CC[C@@H]2[C@@H]1CC2(C)C [Caryophyllene oxide]	bucket 1
N[C@@H](Cc1cc(I)c(Oc2cc(I)c(O)c(I)c2)c(I)c1)C(=O)O [L-Thyroxine]	bucket 3
O=c1cc(-c2ccccc2)oc2cc(O)c(O)c(O)c12 [Baicalein]	bucket 3
O=C(CCc1ccc(O)cc1)c1c(O)cc(O)cc1O [Phloretin]	bucket 2
COc1cc(/C=C/c2ccc(O)cc2)cc(OC)c1 [Pterostilbene]	bucket 3
C[n+]1cccc(C(=O)[O-])c1 [Trigonelline hydrochloride]	bucket 1
Nc1ncnc2c1ncn2C1CC(O)C(CO)O1 (stereo not drawn) [2'-Deoxyadenosine monohydrate]	bucket 2
O=c1c(-c2ccc(O)cc2)coc2cc(O)cc(O)c12 [Genistein]	bucket 3
C=C1C[C@]23C[C@@]1(O)CC[C@H]2[C@@]12C=C[C@H](O)[C@@](C)(C(=O)O1)[C@H]2[C@@H]3C(=O)O [Gibberellic acid]	bucket 2
COc1ccc(C(C)=O)c(O)c1 [Paeonol]	bucket 2
O=C(O)c1cc(O)c2c(c1)[C@@H]([C@H]1c3cc(C(=O)O)cc(O)c3C(=O)c3c(O[C@@H]4O[C@H](CO)[C@@H](O)[C@H](O)[C@H]4O)cccc31)c1cccc(O[C@@H]3O[C@H](CO)[C@@H](O)[C@H](O)[C@H]3O)c1C2=O [Sennoside B]	bucket 1
COc1cc2ccc(=O)oc2c(O)c1O [Fraxetin]	bucket 2
O=C1O[C@H]([C@@H](O)CO)C(O)=C1O [L(+)-Ascorbic acid]	bucket 3
CNC[C@H](O)c1ccc(O)c(O)c1 [Epinephrine bitartrate]	bucket 2
CC(C)(O)CC[C@@H](O)[C@](C)(O)[C@H]1CC[C@@]2(O)C3=CC(=O)[C@@H]4C[C@@H](O)[C@@H](O)C[C@]4(C)[C@H]3CC[C@]12C [Ecdysterone]	bucket 2
O=C(O)c1cc(O)ccc1O [Gentisic acid]	bucket 1
C[C@@H]1CC[C@]2(C(=O)O[C@@H]3O[C@H](CO)[C@@H](O)[C@H](O)[C@H]3O)CC[C@]3(C)C(=CC[C@@H]4[C@@]5(C)CC[C@H](O)[C@@](C)(CO)[C@@H]5CC[C@]43C)[C@@H]2[C@]1(C)O [Pedunculoside]	bucket 3
O=C(O)[C@]1(O)C[C@@H](O)[C@@H](O)[C@H](O)C1 [Quinic acid]	bucket 3
O=C(O)C1=CO[C@@H](O[C@@H]2O[C@H](CO)[C@@H](O)[C@H](O)[C@H]2O)[C@@H]2C(CO)=CC[C@H]12 [Geniposidic Acid]	bucket 1

* * *

system: NCI-H1688; assay: inhibition of cell viability relative to untreated control (fraction); higher = stronger growth inhibition, active = 0.5 or more; details: 30 µM; 24 h
Counter-ions that a name gives are not always drawn.
Possible outcomes: True (active), False (inactive)

COMPOUND	ASSAYED SYSTEM	LABEL
Cc1cc(O)c2c(c1)C(=O)c1cccc(O)c1C2=O [Chrysophanic Acid]	NCI-H1688	False
C[C@H](CCC(=O)O)[C@H]1CC[C@H]2[C@@H]3C(=O)C[C@@H]4CC(=O)CC[C@]4(C)[C@H]3CC(=O)[C@]12C [Dehydrocholic acid]	NCI-H1688	False
N[C@H]1C(O)O[C@H](CO)[C@@H](O)[C@@H]1O (stereo not given in full) [Glucosamine]	NCI-H1688	False
CC(C)=CCC/C(C)=C/C=O [Citral]	NCI-H1688	False
C[C@H](CCC(=O)NCC(=O)O)[C@H]1CC[C@H]2[C@@H]3[C@H](O)C[C@@H]4C[C@H](O)CC[C@]4(C)[C@H]3C[C@H](O)[C@]12C [Glycocholic acid]	NCI-H1688	False
COC(=O)C1=CO[C@@H](O[C@@H]2O[C@H](CO)[C@@H](O)[C@H](O)[C@H]2O)[C@@H]2[C@@H](C)[C@@H](O)C[C@H]12 [Loganin]	NCI-H1688	False
CC(C)=C1C/C=C(\C)CC/C=C(\C)CC1=O [Germacrone]	NCI-H1688	False
CC[C@H]1OC(=O)[C@H](C)[C@@H](O[C@H]2C[C@@](C)(OC)[C@@H](O)[C@H](C)O2)[C@H](C)[C@@H](O[C@@H]2O[C@H](C)C[C@H](N(C)C)[C@H]2O)[C@](C)(O)C[C@@H](C)C(=O)[C@H](C)[C@@H](O)[C@]1(C)O [Erythromycin]	NCI-H1688	False
COc1ccc(C[C@H]2COC(=O)[C@@H]2Cc2ccc(O[C@@H]3O[C@H](CO)[C@@H](O)[C@H](O)[C@H]3O)c(OC)c2)cc1OC [Arctiin]	NCI-H1688	False
C[C@@H]1O[C@@H](O[C@@H]2[C@@H](O)[C@H](OCCc3ccc(O)c(O)c3)O[C@H](CO[C@@H]3O[C@H](CO)[C@@H](O)[C@H](O)[C@H]3O)[C@H]2OC(=O)/C=C/c2ccc(O)c(O)c2)[C@H](O)[C@H](O)[C@H]1O [Echinacoside]	NCI-H1688	False
C=C1CC[C@@H]2[C@](C)(CO)[C@H](O)CC[C@@]2(C)[C@@H]1C/C=C1/C(=O)OC[C@H]1O [Andrographolide]	NCI-H1688	True
CC(C)=CCCC(C)CCO (stereo not given) [Citronellol]	NCI-H1688	False
COc1cc(CO)ccc1O [Vanillyl Alcohol]	NCI-H1688	False
Cc1ccc(C(C)C)cc2c(C)ccc1-2 [Guaiazulene]	NCI-H1688	False
C[C@H](CCC(=O)NCCS(=O)(=O)O)[C@H]1CC[C@H]2[C@@H]3[C@@H](O)C[C@@H]4C[C@H](O)CC[C@]4(C)[C@H]3CC[C@]12C [Tauroursodeoxycholic Acid]	NCI-H1688	False
COc1ccccc1O [Guaiacol]	NCI-H1688	False
O=c1cc(-c2ccc(O)c(O)c2)oc2cc(O[C@@H]3O[C@H](CO)[C@@H](O)[C@H](O)[C@H]3O)cc(O)c12 [Cynaroside]	NCI-H1688	True
O=C(/C=C/C=C/c1ccc2c(c1)OCO2)N1CCCCC1 [Piperine]	NCI-H1688	False
COC(=O)c1ccc(O)c(OC)c1 [Methyl Vanillate]	NCI-H1688	False
COc1cc(O)c2c(c1)C(=O)c1cc(C)cc(O)c1C2=O [Rheochrysidin]	NCI-H1688	False
COc1ccc(-c2coc3cc(O)cc(O)c3c2=O)cc1 [Biochanin A]	NCI-H1688	False
Nc1ncnc2c1ncn2[C@@H]1O[C@H](COP(=O)(O)O)[C@@H](O)[C@H]1O [Adenosine 5'-monophosphate]	NCI-H1688	False
CC(C)[C@@H]1CC[C@@H](C)C[C@H]1O [L-Menthol]	NCI-H1688	False
Nc1nc(=O)c2nc(CNc3ccc(C(=O)N[C@@H](CCC(=O)O)C(=O)O)cc3)cnc2[nH]1 [Folic acid]	NCI-H1688	False
COc1cc(CNC(=O)CCCC/C=C/C(C)C)ccc1O [Capsaicin]	NCI-H1688	False
COC(=O)[C@@H]1[C@H]2C[C@H]3c4[nH]c5ccccc5c4CCN3C[C@@H]2CC[C@@H]1O [Yohimbine hydrochloride]	NCI-H1688	False
COc1cc(-c2oc3cc(O)cc(O)c3c(=O)c2O)ccc1O [Isorhamnetin]	NCI-H1688	False
O=C(O)/C=C/CCCCCCCO [10-Hydroxy-2-decenoic acid]	NCI-H1688	False
CC[C@H]1OC(=O)[C@H](C)[C@@H](O[C@H]2C[C@@](C)(OC)[C@@H](O)[C@H](C)O2)[C@H](C)[C@@H](O[C@@H]2O[C@H](C)C[C@H](N(C)C)[C@H]2O)[C@](C)(O)C[C@@H](C)[C@@H]2N[C@@H](COCCOC)O[C@H]([C@H]2C)[C@]1(C)O [Dirithromycin]	NCI-H1688	False
Cc1cccc(C)c1NC(=O)c1ccccc1C(=O)O [Ftaxilide]	NCI-H1688	False
